# credit: PubChem BioAssay (NCI)

tested on: LOX IMVI melanoma; assay: NCI-60 one-dose screen, 48 h (100 = growth as untreated, 0 = no growth, -100 = all killed); conditions: 10 µM unless noted
Compounds without any hit were thinned out: in the full panel of roughly 83,000, 20% have a hit.
One threshold, 90%, splits the recorded growth values: lower ones are Yes, equal or higher ones are No.

Solved entries (count: 4):
INSERT INTO assay_data (compound, class_name) VALUES
  ('Cc1ccc(S(=O)(=O)c2nc(-c3ccccc3)oc2S(C)(=O)=O)cc1', 'Yes'),
  ('Cc1nn(-c2ccc([N+](=O)[O-])cc2)c2ncnc(NCCc3ccccc3)c12', 'No'),
  ('COc1cc(Nc2nc(N[C@H]3CCCC[C@@H]3N)nc3cc[nH]c(=O)c23)cc(OC)c1', 'Yes'),
  ('COc1ccc(/C(C#N)=C/c2cc(OC)c(OC)c(OC)c2)cc1', 'Yes');

Task item: For COP(=O)(OC)/C(=N\NS(=O)(=O)c1ccc(C)cc1)c1ccccc1 , is the recorded growth below the cut-off of 90%?
Reply: No

Task item: For Cc1cc(C2(c3cc(C)c(O)cc3C)OS(=O)(=O)c3ccccc32)c(C)cc1O , is the recorded growth below the cut-off of 90%?
Reply: No

Task item: For CC(C)(C)OC(=O)NCCc1ccc(N=C=S)cc1 , is the recorded growth below the cut-off of 90%?
Reply: Yes

Task item: For Cc1c(C(=N)C(C#N)C#N)c(=N)oc2c1ccc1ccccc12 , is the recorded growth below the cut-off of 90%?
Reply: No

Task item: For N#Cc1c(Nc2ccccc2)nc2n(c1=O)-c1ccccc1Sc1ccccc1-2 , is the recorded growth below the cut-off of 90%?
Reply: Yes
